Tested on: DLD1
TEST_DESCRIPTION: cell viability (CellTiter-Glo) relative to plate median (fraction of plate median); higher = more viable cells
CONDITION_DESCRIPTION: 10 µM; treatment time 24 h; reporter: 7TFP
Form field: cell viability (one value per entry).

O=C1NC(=O)/C(=C/c2ccc3nccc(-c4ccncc4)c3c2)S1
0.973

Ask | Given the compound `O=c1cc(-c2cccc3c2Sc2ccccc2S3)oc(N2CCOCC2)c1` , what is its reported cell viability?
Reply | 1.02

Ask | What cell viability value was documented for this compound, O=C1NC(=O)[C@@H](c2cn3c4c(cccc24)CCC3)[C@@H]1c1c[nH]c2ccccc12 [ARQ 197 (Tivantinib)] ?
Reply | 0.995
